test: Partition coefficient (logP); type: physicochemical; conditions: octanol/water
Recorded Metric: logP

Compound: CCCCCCCCCCCCCCCCCCOC[C@H](COP(=O)(O)OC1[C@@H](O)[C@@H](O)[C@H](O)[C@H](CO)[C@H]1O)n1ccnc1 (single isomer, unassigned)
logP: 3.22
//
Compound: CCCCCCCCCCCCCCCCCCOC[C@H](COP(=O)(O)OC1[C@H](O)C[C@@H](O)[C@H](O)[C@@H]1O)OC (single isomer, unassigned)
logP: 4.44

---

target: Serine/threonine-protein kinase AKT (Homo sapiens, UniProt P31751+Q9Y243+P31749); assay: Inhibition of Akt (proto-oncogenic serine/threonine) kinase; format: protein assay
Recorded Metric: IC50 (µM)

Compound: CCCCCCCCCCCCCCCCCCOC[C@H](COC(=O)OC1[C@@H](O)[C@@H](O)[C@H](O)[C@H](CO)[C@H]1O)OC (single isomer, unassigned)
IC50, µM: 5

Compound: CCCCCCCCCCCCCCCCCCOC[C@H](COC(=O)OC1[C@@H](O)[C@@H](O)[C@H](O)[C@H](CO)[C@@H]1O)n1ccnc1 (single isomer, unassigned)
IC50, µM: 15

Compound: CCCCCCCCCCCCCCCCCCOC[C@H](COP(=O)(O)OC1[C@H](O)C[C@@H](O)[C@H](O)[C@@H]1O)n1ccnc1 (single isomer, unassigned)
IC50, µM: 37.5

1: CCCCCCCCCCCCCCCCCCOC[C@H](COP(=O)(O)OC1[C@@H](O)[C@@H](O)[C@H](O)[C@H](CO)[C@H]1O)OC (single isomer, unassigned)
2: CCCCCCCCCCCCCCCCCCOC[C@H](COP(=O)(O)OC1[C@@H](O)[C@@H](O)[C@H](O)[C@H](CO)[C@H]1O)n1ccnc1 (single isomer, unassigned)
Task: Choose between 1 and 2 : whose measured IC50 value is numerically larger? Let me know the label of the one you choose.
Output: 2
(2: 20.5 µM, 1: 7.8 µM)
